Test system: Rabbit LDL
assay_remarks: Amount of TBARS (Cu^2+-induced oxidation of rabbit LDL)
Format: biochemical
condition_label: at 10^-5 M of compound; 5 μM Cu^2+; 10 µM
Assign rule met to entries whose TBARS produced (%) meets or exceeds 10%; assign rule not met to the rest.

Exercise: Form field: TBARS produced (%) at least 10%? Entry: CCCCCCCCC1Cc2c(cc(C(C)(C)C)c(O)c2C(C)(C)C)O1 (centres unmarked)
Solution: rule not met

Exercise: How about this compound: CC(C)(C)c1cc2c(c(C(C)(C)C)c1O)CC(c1ccccc1)(c1ccccc1)O2
Solution: rule met

Exercise: How about this compound: CC(C)(C)c1cc2c(c(C(C)(C)C)c1O)CCO2
Solution: rule met

Exercise: How about this compound: CC(C)(C)c1cc2c(c(C(C)(C)C)c1O)CC(CCl)O2 (centres unmarked)
Solution: rule not met

Exercise: How about this compound: CC(C)(C)c1cc2c(C(C)(C)C)c(O)c(C(C)(C)C)cc2o1 [Compound t, 2,4,6-Tri-tert-Butyl-5-Hydroxybenzofuran]
Solution: rule met

Exercise: How about this compound: CC(C)(C)c1cc2c(c(C(C)(C)C)c1O)CC(Cc1ccccc1)(Cc1ccccc1)O2
Solution: rule met

Exercise: How about this compound: CCCOc1cc(C(C)(C)C)c(O)c(C(C)(C)C)c1C
Solution: rule met

Exercise: How about this compound: Cc1cc2c(C(C)(C)C)c(O)c(C(C)(C)C)cc2o1
Solution: rule met

Exercise: How about this compound: C=CCOc1cc(C(C)(C)C)c(O)c(C(C)(C)C)c1C
Solution: rule met

Exercise: How about this compound: CC(C)(C)c1cc2c(c(C(C)(C)C)c1O)CC(C(C)(C)C)O2 (centres unmarked)
Solution: rule met

Exercise: How about this compound: CCCCCC1(CCCCC)Cc2c(cc(C(C)(C)C)c(O)c2C(C)(C)C)O1
Solution: rule met

Exercise: How about this compound: CC1Cc2c(cc(C(C)(C)C)c(O)c2C(C)(C)C)O1 (centres unmarked)
Solution: rule not met

Exercise: How about this compound: CC(C)C1(C(C)C)Cc2c(cc(C(C)(C)C)c(O)c2C(C)(C)C)O1
Solution: rule met

Exercise: How about this compound: CC(C)(C)c1cc2c(c(C(C)(C)C)c1O)CC1(CCCCCC1)O2
Solution: rule not met

Exercise: How about this compound: CCCC1(CCC)Cc2c(cc(C(C)(C)C)c(O)c2C(C)(C)C)O1
Solution: rule met

Exercise: How about this compound: CC(C)(C)c1cc2c(c(C(C)(C)C)c1O)CC1(CCCC1)O2
Solution: rule met

Exercise: How about this compound: CC1(C)Cc2c(cc(C(C)(C)C)c(O)c2C(C)(C)C)O1
Solution: rule not met

Exercise: How about this compound: Cc1c(OCCCOc2cc(C(C)(C)C)c(O)c(C(C)(C)C)c2C)cc(C(C)(C)C)c(O)c1C(C)(C)C
Solution: rule met

Exercise: How about this compound: CCCc1c2c(c(C(C)(C)C)c(O)c1C(C)(C)C)CC(C)(C)O2
Solution: rule met

Exercise: How about this compound: CCCCC1(CCCC)Cc2c(cc(C(C)(C)C)c(O)c2C(C)(C)C)O1
Solution: rule met

Exercise: How about this compound: CC(C)(C)c1cc2occc2c(C(C)(C)C)c1O [Compound r, 4,6-Di-tert-Butyl-5-Hydroxybenzofuran]
Solution: rule met

Exercise: How about this compound: CCC1(CC)Cc2c(cc(C(C)(C)C)c(O)c2C(C)(C)C)O1
Solution: rule not met

Exercise: How about this compound: CC(C)(C)c1cc2c(c(C(C)(C)C)c1O)CC1(CCCCC1)O2
Solution: rule met

Exercise: How about this compound: CC(C)(C)c1cc2c(c(C(C)(C)C)c1O)CC1(CCCCCCC1)O2
Solution: rule met

Exercise: How about this compound: CC(C)CCC1(CCC(C)C)Cc2c(cc(C(C)(C)C)c(O)c2C(C)(C)C)O1
Solution: rule met

Exercise: How about this compound: CCCCCCCCC1(CCCCCCCC)Cc2c(cc(C(C)(C)C)c(O)c2C(C)(C)C)O1
Solution: rule met

====

Can you tell me Chemiluminescence intensity (% of control) for the items I'm about to list?
Test system: lactoperoxidase reaction system (singlet oxygen)
assay_remarks: Lactoperoxidase system (singlet oxygen system)
Assay type: biochemical
condition_label: at 20 μM of compound; pH 4.5, 37° C.

Exercise: Quick one: Chemiluminescence intensity (% of control) for CCCc1c2c(c(C(C)(C)C)c(O)c1C(C)(C)C)CC(C)(C)O2 ?
Solution: 104.0 % of control

Exercise: How about this compound: CCCCCCCCC1Cc2c(cc(C(C)(C)C)c(O)c2C(C)(C)C)O1 (centres unmarked)
Solution: 97.0 % of control

Exercise: How about this compound: CC(C)(C)c1cc(O)c(C(C)(C)C)c2c1OCC2 [Comparison 5, reference compound]
Solution: 95.3 % of control

Exercise: How about this compound: CC(C)(C)c1cc2c(c(C(C)(C)C)c1O)CCO2
Solution: 94.5 % of control

Exercise: How about this compound: CC(C)(C)c1c(O)ccc2c1CCO2 [Comparison 1, reference compound]
Solution: 77.6 % of control

Exercise: How about this compound: CC1Cc2c(ccc(O)c2C(C)(C)C)O1 (centres unmarked) [Comparison 2, reference compound]
Solution: 82.1 % of control

Exercise: How about this compound: CC1Cc2c(c(C(C)(C)C)cc(O)c2C(C)(C)C)O1 (centres unmarked) [Comparison 6, reference compound]
Solution: 105.8 % of control

Exercise: How about this compound: CCC(C)c1cc2c(c(C(C)(C)C)c1O)CCO2 (centres unmarked) [Comparison 7, reference compound]
Solution: 86.2 % of control

====

Tested on: Rabbit LDL
assay_remarks: Amount of TBARS (Cu^2+-induced oxidation of rabbit LDL)
Assay type: biochemical
condition_label: at 10^-6 M of compound; 5 μM Cu^2+; 1 µM
measurement_type: TBARS produced (%)
Express the result in % but write the number alone.

Exercise: Quick one: TBARS produced (%) for CC(C)(C)c1cc2c(c(C(C)(C)C)c1O)CC1(CCCCC1)O2 ?
Solution: 76.2

Exercise: How about this molecule: CC(C)(C)c1cc2c(c(C(C)(C)C)c1O)CC(C(C)(C)C)O2 (centres unmarked)
Solution: 74.0

Exercise: How about this molecule: CCCCCCCCC1(CCCCCCCC)Cc2c(cc(C(C)(C)C)c(O)c2C(C)(C)C)O1
Solution: 85.4

Exercise: How about this molecule: CC(C)(C)c1cc2c(c(C(C)(C)C)c1O)CC(Cc1ccccc1)(Cc1ccccc1)O2
Solution: 93.0

Exercise: How about this molecule: CC(C)CCC1(CCC(C)C)Cc2c(cc(C(C)(C)C)c(O)c2C(C)(C)C)O1
Solution: 77.5

Exercise: How about this molecule: CC1Cc2c(cc(C(C)(C)C)c(O)c2C(C)(C)C)O1 (centres unmarked)
Solution: 53.8

Exercise: How about this molecule: Cc1c(OCCCOc2cc(C(C)(C)C)c(O)c(C(C)(C)C)c2C)cc(C(C)(C)C)c(O)c1C(C)(C)C
Solution: 71.3

Exercise: How about this molecule: CC(C)(C)c1cc2c(c(C(C)(C)C)c1O)CC1(CCCCCC1)O2
Solution: 91.2

====

Can you tell me Chemiluminescence intensity (% of control) for the items I'm about to list?
Tested on: xanthine oxidase (XOD)-hypoxanthine (HX) system (superoxide)
assay_remarks: Xanthine oxidase system (superoxide generating system)
Assay type: biochemical
condition_label: at 200 μM of compound; pH 7.4, 37° C.

Exercise: Quick one: Chemiluminescence intensity (% of control) for CCCCCCCCC1Cc2c(cc(C(C)(C)C)c(O)c2C(C)(C)C)O1 (stereo not shown) ?
Solution: 104.8 % of control

Exercise: How about this molecule: CC(C)(C)c1cc2c(c(C(C)(C)C)c1O)CC1(CCCCC1)O2
Solution: 104.9 % of control

Exercise: How about this molecule: CC(C)(C)c1cc2c(c(C(C)(C)C)c1O)CCO2
Solution: 26.1 % of control

Exercise: How about this molecule: CCCCCC1(CCCCC)Cc2c(cc(C(C)(C)C)c(O)c2C(C)(C)C)O1
Solution: 85.6 % of control

Exercise: How about this molecule: CC(C)(C)c1cc2c(c(C(C)(C)C)c1O)CC1(CCCC1)O2
Solution: 89.8 % of control

Exercise: How about this molecule: CCCCCCCCC1(CCCCCCCC)Cc2c(cc(C(C)(C)C)c(O)c2C(C)(C)C)O1
Solution: 110.2 % of control

Exercise: How about this molecule: CCCCC1(CCCC)Cc2c(cc(C(C)(C)C)c(O)c2C(C)(C)C)O1
Solution: 102.4 % of control

Exercise: How about this molecule: CCC(C)c1cc2c(c(C(C)(C)C)c1O)CCO2 (stereo not shown) [Comparison 7, reference compound]
Solution: 17.5 % of control

Exercise: How about this molecule: CC1Cc2c(ccc(O)c2C(C)(C)C)O1 (stereo not shown) [Comparison 2, reference compound]
Solution: 3.2 % of control

Exercise: How about this molecule: CC(C)(C)c1c(O)ccc2c1CCO2 [Comparison 1, reference compound]
Solution: 6.3 % of control

Exercise: How about this molecule: CC1Cc2c(c(C(C)(C)C)cc(O)c2C(C)(C)C)O1 (stereo not shown) [Comparison 6, reference compound]
Solution: 24.0 % of control

Exercise: How about this molecule: CC(C)CCC1(CCC(C)C)Cc2c(cc(C(C)(C)C)c(O)c2C(C)(C)C)O1
Solution: 107.5 % of control

Exercise: How about this molecule: CC(C)(C)c1cc(O)c(C(C)(C)C)c2c1OCC2 [Comparison 5, reference compound]
Solution: 8.2 % of control
